Test system: SVMP activity of Bothrops jararaca venom
Conditions: read-out: Inhibition of SVMP enzymatic activity EC50 BJA; B. jararaca venom; mean of n ≥ 3, range in brackets
reported.metric: log10 of EC50 (log10 of the value in nM)
Give log10 of EC50, with EC50 taken in nM.

Previously resolved entries follow.
1) COCCN1CCN(S(=O)(=O)c2ccc(Oc3ccc(Cl)cc3)cc2)[C@@H](C(=O)NO)C1 : 2.37
2) COc1ccc(S(=O)(=O)N2CCN(S(=O)(=O)C3CC3)C[C@@H]2C(=O)NO)cc1 : 1.04
3) COCCN1CCN(S(=O)(=O)c2ccc(Oc3ccc(OC(F)(F)F)cc3)cc2)[C@@H](C(=O)NO)C1 : 2.93

Q. Supply measured log10 of EC50 of COc1ccc(S(=O)(=O)N2CCN(S(=O)(=O)c3ccc(OC)cc3)[C@@H](C(=O)NO)C2)cc1 in your reply.
A. 1.26

Q. Supply measured log10 of EC50 of COCCOC(=O)N1CCN(S(=O)(=O)c2cc(F)c(Oc3ccc(Cl)cc3)c(F)c2)[C@@H](C(=O)NO)C1 [XL-784, reference compound] in your reply.
A. 1.81

---

Assay: in vivo
Details: male, CD1, mouse, plasma, po, 20 mg/kg
reported.metric: MRT inf
Please report the result as a number followed by the unit.

Q. Supply measured MRT inf of COc1ccc(S(=O)(=O)N2CCN(S(=O)(=O)C3CC3)C[C@@H]2C(=O)NO)cc1 in your reply.
A. 1.61 h

---

The following compounds have recorded Human Protein binding (%free) on human plasma protein.
Quick note: give the figure in %free, leave out the unit.

1) COCCN1CCN(S(=O)(=O)c2ccc(-c3ccc(F)cc3)cc2)[C@@H](C(=O)NO)C1 : 14.0
2) COCCOC(=O)N1CCN(S(=O)(=O)c2cc(F)c(Oc3ccc(Cl)cc3)c(F)c2)[C@@H](C(=O)NO)C1 [XL-784, reference compound] : 0.3
3) COc1ccc(S(=O)(=O)N2CCN(S(C)(=O)=O)C[C@@H]2C(=O)NO)cc1 : 88

Now let's try a different one.
Q. // fetch Human Protein binding (%free) for COCCN1CCN(S(=O)(=O)c2ccc(Oc3ccc(OC(F)(F)F)cc3)cc2)[C@@H](C(=O)NO)C1 ; system: human plasma protein
A. 3.0

---

Reported logD values for a set of compounds
Test: physchem
Conditions: organic solvent / aqueous solvent at pH 7.4, pH 7.4

Previously resolved entries follow.
1) COc1ccc(S(=O)(=O)N2CCN(S(=O)(=O)c3c(C)noc3C)C[C@@H]2C(=O)NO)cc1 : 0.7
2) COc1ccc(S(=O)(=O)N2CCN(S(=O)(=O)c3ccc(OC)cc3)[C@@H](C(=O)NO)C2)cc1 : 1

Q. Supply measured logD of COc1ccc(S(=O)(=O)N2CCN(S(=O)(=O)C3CC3)C[C@@H]2C(=O)NO)cc1 in your reply.
A. 0.2

Q. Supply measured logD of COCCOC(=O)N1CCN(S(=O)(=O)c2cc(F)c(Oc3ccc(Cl)cc3)c(F)c2)[C@@H](C(=O)NO)C1 [XL-784, reference compound] in your reply.
A. 3.2

---

Reported log10 hepatocyte CLint values for a set of molecules
Test: in vitro
Conditions: rat, hepatocytes
Give log10 of hepatocyte CLint, with hepatocyte CLint taken in µL/min/1e6 cells.

1. COCCN1CCN(S(=O)(=O)c2ccc(OC)cc2)[C@@H](C(=O)NO)C1 : 1.76

Q. Supply measured log10 hepatocyte CLint of COc1ccc(S(=O)(=O)N2CCN(S(=O)(=O)c3c(C)noc3C)C[C@@H]2C(=O)NO)cc1 in your reply.
A. 1.64

Q. Supply measured log10 hepatocyte CLint of COc1ccc(S(=O)(=O)N2CCN(S(=O)(=O)c3ccc(OC)cc3)[C@@H](C(=O)NO)C2)cc1 in your reply.
A. 2.30

---

Assay: in vitro
Conditions: human, microsomes
reported.metric: microsomal CLint

Previously resolved entries follow.
1) COc1ccc(S(=O)(=O)N2CCN(S(C)(=O)=O)C[C@@H]2C(=O)NO)cc1 [compound 19] : < 3 µL/min/mg
2) COCCN1CCN(S(=O)(=O)c2ccc(OC)cc2)[C@@H](C(=O)NO)C1 [compound 20] : < 3 µL/min/mg
3) COCCN1CCN(S(=O)(=O)c2ccc(Oc3ccc(OC)cc3)cc2)[C@@H](C(=O)NO)C1 [compound 17] : > 300 µL/min/mg

Now let's try a different one.
Q. Supply measured microsomal CLint of COc1ccc(S(=O)(=O)N2CCNC[C@@H]2C(=O)NO)cc1.Cl [compound 18] in your reply.
A. < 3 µL/min/mg

---

Reported solubility values for a set of molecules
Assay: physchem
Conditions: aqueous medium at pH 7.4, pH 7.4, aqueous buffer

Q. Supply measured solubility of COCCN1CCN(S(=O)(=O)c2ccc(OC)cc2)[C@@H](C(=O)NO)C1 [compound 20] in your reply.
A. > 1000 µM

Q. Supply measured solubility of COc1ccc(S(=O)(=O)N2CCN(S(C)(=O)=O)C[C@@H]2C(=O)NO)cc1 [compound 19] in your reply.
A. < 1000 µM

Q. Supply measured solubility of COc1ccc(S(=O)(=O)N2CCN(S(=O)(=O)c3c(C)noc3C)C[C@@H]2C(=O)NO)cc1 [compound 22] in your reply.
A. > 1000 µM

---

Reported hepatocyte CLint values for a set of molecules
Assay: in vitro
Conditions: rat, hepatocytes
Quick note: give the figure in µL/min/1e6 cells, leave out the unit.

1) COCCN1CCN(S(=O)(=O)c2ccc(Oc3ccc(OC)cc3)cc2)[C@@H](C(=O)NO)C1 : 209
2) COCCN1CCN(S(=O)(=O)c2ccc(Oc3ccc(C(F)(F)F)cc3)cc2)[C@@H](C(=O)NO)C1 : 22.8
3) COc1ccc(S(=O)(=O)N2CCN(S(C)(=O)=O)C[C@@H]2C(=O)NO)cc1 : 8.9

Q. Supply measured hepatocyte CLint of COCCN1CCN(S(=O)(=O)c2ccc(-c3ccc(Cl)cc3)cc2)[C@@H](C(=O)NO)C1 in your reply.
A. 21.1

Q. Supply measured hepatocyte CLint of COc1ccc(S(=O)(=O)N2CCNC[C@@H]2C(=O)NO)cc1.Cl in your reply.
A. 6.3

Q. Supply measured hepatocyte CLint of COCCOC(=O)N1CCN(S(=O)(=O)c2cc(F)c(Oc3ccc(Cl)cc3)c(F)c2)[C@@H](C(=O)NO)C1 [XL-784, reference compound] in your reply.
A. 67.3

Q. Supply measured hepatocyte CLint of COc1ccc(S(=O)(=O)N2CCN(S(=O)(=O)C3CC3)C[C@@H]2C(=O)NO)cc1 in your reply.
A. 13.3

Q. Supply measured hepatocyte CLint of COCCN1CCN(S(=O)(=O)c2ccc(Oc3ccc(OC(F)(F)F)cc3)cc2)[C@@H](C(=O)NO)C1 in your reply.
A. 65.6
